assay: Effect of pH on drug penetration through hairless mouse skin pretreated with Sigma papain (Example 6B); assay type: in vitro ADME; settings: mouse; Sigma papain 0.093 mg/ml for 24 hours, pH 8.0; read-out: P (permeability)
property_measured: Papp (×10⁻⁶ cm/s)

In [3]: df
Out[3]:
                                   compound  experimental_value
0  CC(=O)CC(c1ccccc1)c1c(O)c2ccccc2oc1=O (stereo not shown)                1.21

====

# Papp annotations
assay: Effect of pH on drug penetration through normal untreated hairless mouse skin (Example 6A); format: in vitro ADME; conditions: mouse, pH 5.9, read-out: P (permeability)
property_measured: Papp (×10⁻⁶ cm/s)

                                   molecule  property_measured  units_text  experimental_value
0  CC(=O)[C@H]1CC[C@H]2[C@@H]3CCC4=CC(=O)CC[C@]4(C)[C@H]3CC[C@]12C               Papp  ×10⁻⁶ cm/s                2.88
1  CC(=O)OCC[N+](C)(C)C.[Cl-] [Acetylcholine Chloride, acetylcholine chloride]               Papp  ×10⁻⁶ cm/s              0.0291

====

assay: Effect of pH on drug penetration through hairless mouse skin pretreated with Sigma papain (Example 6B); assay type: in vitro ADME; conditions: mouse, pH 7.4, Sigma papain 0.093 mg/ml for 24 hours, pH 7.4; read-out: P (permeability)
property_measured: Papp

In [3]: df
Out[3]:
                                   molecule  experimental_value
0  CC(=O)[C@H]1CC[C@H]2[C@@H]3CCC4=CC(=O)CC[C@]4(C)[C@H]3CC[C@]12C     3.41 ×10⁻⁶ cm/s
1  CC(=O)OCC[N+](C)(C)C.[Cl-] [Acetylcholine Chloride, acetylcholine chloride]     3.23 ×10⁻⁶ cm/s

====

The entries below are paired with their reported Papp.
assay: Effect of pH on drug penetration through hairless mouse skin pretreated with Sigma papain (Example 6B); assay type: in vitro ADME; conditions: mouse, pH 6.6, Sigma papain 0.093 mg/ml for 24 hours, pH 6.6; read-out: P (permeability)
property_measured: Papp (nm/s)

                                   molecule  property_measured  experimental_value
0  CC(=O)OCC[N+](C)(C)C.[Cl-] [Acetylcholine Chloride, acetylcholine chloride]               Papp                38.8
1  CC(=O)[C@H]1CC[C@H]2[C@@H]3CCC4=CC(=O)CC[C@]4(C)[C@H]3CC[C@]12C               Papp                43.9

====

assay: Effect of pH on drug penetration through hairless mouse skin pretreated with Sigma papain (Example 6B); assay type: in vitro ADME; conditions: mouse; Sigma papain 0.093 mg/ml for 24 hours, pH 6.6; read-out: P (permeability)
property_measured: Papp

>>> df
                                   molecule  experimental_value
0  CC(=O)CC(c1ccccc1)c1c(O)c2ccccc2oc1=O (stereo not shown) [Warfarin, warfarin]      1.2 ×10⁻⁶ cm/s

====

experiment: Effect of pH on drug penetration through hairless mouse skin pretreated with Sigma papain (Example 6B); assay type: in vitro ADME; conditions: mouse, pH 5.9, Sigma papain 0.093 mg/ml for 24 hours, pH 5.9; read-out: P (permeability)
Listed here are compounds together with their documented Papp.
property_measured: Papp (×10⁻⁶ cm/s)

                                   compound  property_measured  experimental_value
0  CC(=O)[C@H]1CC[C@H]2[C@@H]3CCC4=CC(=O)CC[C@]4(C)[C@H]3CC[C@]12C [Progesterone, progesterone]               Papp                 3.6
1  CC(=O)OCC[N+](C)(C)C.[Cl-] [Acetylcholine Chloride, acetylcholine chloride]               Papp                   3

====

assay: Effect of pH on drug penetration through normal untreated hairless mouse skin (Example 6A); format: in vitro ADME; details: mouse, pH 6.6, read-out: P (permeability)
property_measured: Papp (nm/s)

>>> df
                                   compound  experimental_value
0  CC(=O)[C@H]1CC[C@H]2[C@@H]3CCC4=CC(=O)CC[C@]4(C)[C@H]3CC[C@]12C [Progesterone, progesterone]                29.2
1  CC(=O)OCC[N+](C)(C)C.[Cl-] [Acetylcholine Chloride, acetylcholine chloride]                0.26
